Test: protein stability index of a GFP-peptide fusion (yeast GPS) (PSI 1-4); higher = more stable; sorted into four equal gates, so the index is relative within each strain
Settings: ubr1∆
Assignment: determine reported protein stability index for the given sequences.
Numbers only.

For every item in the list below, what is its measured protein stability index?
1. TVRLVNLFSSTGFKGLL [SRB2]
2. DVAYLLKSESATSQYLK [YGL172W/NUP49]
3. FSEVYEYNRLKVQDAIE [LIN1]
4. DRELNEVINQMERLDGD [SMC3]
5. ARKYLQTRWGLPSGRQD [FAS2]

Response:
[2.9, 3.03, 2.89, 3.1, 3.16]

* * *

Assignment: determine reported protein stability index for the given sequences.
Experiment: protein stability index of a GFP-peptide fusion (yeast GPS) (PSI 1-4); higher = more stable; sorted into four equal gates, so the index is relative within each strain
Conditions: doa10∆
Numbers only.

Look over these answered cases.
1. IIKMTIPYAAKLLFQEL [RET1] :: 2.18
2. DPNEVEIKKLLATNSLV [DIS3] :: 2.19
3. ARKGLTPSQIGVLLRDA [RPS13] :: 2.91
4. VREFQRRLAFLGIKVAE [BRR2] :: 2.06

For every item in the list below, what is its measured protein stability index?
1. LMATEYQDIEGGFEDVE [RPB2]
2. DANPSSQIIARNEEILR [SMC2]
3. TKIKPFIKVVNYNHLLP [RPL27A]

Response:
1. 3.43
2. 2.94
3. 2.49

For every item in the list below, what is its measured protein stability index?
1. KRQFNNSYWLIILLGVL [ITC1]
2. LALPVFHIGYFKATIQI [RPO31]
3. EVVSEAINIMNRSNDAL [FAS2]
4. LNLLSQNNTTKFHSELQ [RPN12]
5. YNSRPRSVRIPWYNNPV [PRP8]
6. VNDRSDISDSEGGLFEC [PCI8]

Response:
1. 2.16
2. 1.51
3. 3.32
4. 2.47
5. 2.34
6. 3.38

For every item in the list below, what is its measured protein stability index?
1. SNMILGSVELSTGDYTF [YML103C/NUP188]
2. NKKGRGHVKPVRCVNCS [RPS26A]
3. EEAKSVLPAATKKKSKF [ARP9]
4. IWMRGHGTYFLDNMTYS [RRP4]
5. NLKDLNNVKQMVMAGSK [RPO21]

Response:
2.48
3.18
2.1
2.45
1.81

Query: Recorded protein stability index for KPTDATGNTTSKSAFSF [YOR098C/NUP1] , please?
Response: 2.04

* * *

Test: protein stability index of a GFP-peptide fusion (yeast GPS) (PSI 1-4); higher = more stable; sorted into four equal gates, so the index is relative within each strain
Conditions: ubr1∆
PARAMETER_MEASURED: protein stability index
Numbers only.

Look over these answered cases.
1) VKQVLLSVEIGVLTDIS [NUT1] :: 1.64
2) TKPSDLTIKDIVLGVKD [RPO21] :: 2.83
3) SPHYNSQKQTLIKKPLT [SSN3] :: 2.65
4) TPANNGENAAEKPDNSN [SNF2] :: 2.71
5) VRIYSGLLKRGDTVRIL [SNU114] :: 3.02
6) PGVDVSAEEQLRKIDML [SRB7] :: 2.67

Now for a further sequence.
Query: Recorded protein stability index for GQSTILVGSEIYEKLKN [CDC53] , please?
Response: 1.96
